Target: Substance-K receptor (Cavia porcellus) (UniProt Q64077)
Sequence (Q64077 whole entry): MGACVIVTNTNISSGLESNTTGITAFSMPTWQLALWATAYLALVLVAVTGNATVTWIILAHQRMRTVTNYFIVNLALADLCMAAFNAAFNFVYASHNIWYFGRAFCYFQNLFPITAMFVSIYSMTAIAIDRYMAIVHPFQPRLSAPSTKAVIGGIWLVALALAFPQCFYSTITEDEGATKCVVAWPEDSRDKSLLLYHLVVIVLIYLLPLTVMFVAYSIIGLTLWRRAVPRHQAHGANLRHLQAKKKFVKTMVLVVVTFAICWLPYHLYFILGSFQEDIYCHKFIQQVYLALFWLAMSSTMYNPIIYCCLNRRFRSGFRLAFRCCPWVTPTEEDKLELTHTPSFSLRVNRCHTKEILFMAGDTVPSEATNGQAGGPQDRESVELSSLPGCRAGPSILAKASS
Test: Antagonist activity at NK2 receptor in Dunkin-Hartley guinea pig colon smooth muscle assessed as inhibition of [beta-Ala8]NKA(4-10)-induced tissue contraction in presence of NK1 receptor antagonist SR-140333
Type: functional, tissue-based
measure: pKb

# compound, target_or_test_system, measure, measured
records = [
    ("Cc1ccc2cc(C(=O)NC3(C(=O)N[C@@H](CCCN4CCN(Cc5cccs5)CC4)Cc4ccccc4)CCCC3)sc2c1", "Substance-K receptor (Cavia porcellus) (UniProt Q64077)", "pKb", 7.7),
    ("Cc1ccc(-c2ccc(C(=O)NC3(C(=O)N[C@@H](CCCN4CCN(CC5CCOCC5)CC4)Cc4ccccc4)CCCC3)cc2)cc1", "Substance-K receptor (Cavia porcellus) (UniProt Q64077)", "pKb", 7.8),
    ("Cc1ccc2cc(C(=O)NC3(C(=O)N[C@@H](CCCN4CCC(CN5CCOCC5)CC4)Cc4ccccc4)CCCC3)sc2c1", "Substance-K receptor (Cavia porcellus) (UniProt Q64077)", "pKb", 7.8),
    ("Cc1ccc2cc(C(=O)NC3(C(=O)N[C@@H](CCCN4CCN(C5CCOCC5)CC4)Cc4ccccc4)CCCC3)sc2c1", "Substance-K receptor (Cavia porcellus) (UniProt Q64077)", "pKb", 8.1),
    ("Cc1ccc2cc(C(=O)NC3(C(=O)N[C@@H](CCCN4CCC(CCO)CC4)Cc4ccccc4)CCCC3)sc2c1", "Substance-K receptor (Cavia porcellus) (UniProt Q64077)", "pKb", 8.1),
    ("Cc1ccc2cc(C(=O)NC3(C(=O)N[C@@H](CCCN4CCC(C(=O)N5CCOCC5)CC4)Cc4ccccc4)CCCC3)sc2c1", "Substance-K receptor (Cavia porcellus) (UniProt Q64077)", "pKb", 7.8),
    ("Cc1ccc2cc(C(=O)NC3(C(=O)N[C@@H](CCCN4CCN(c5ncccn5)CC4)Cc4ccccc4)CCCC3)sc2c1", "Substance-K receptor (Cavia porcellus) (UniProt Q64077)", "pKb", 8),
]
